Listing: pTD50 of selected compounds
- Species: Rattus norvegicus
- ASSAY_METHOD_TEXT: Anticarcinogenic activity in rat assessed as induction of tumors per day
- Type: functional

COMPOUND: NC(=O)N/N=C/c1ccc([N+](=O)[O-])o1 [NITROFURAZONE]
pTD50: 1.517

COMPOUND: CCNC(=O)Nc1ncc([N+](=O)[O-])s1 [NITHIAZIDE]
pTD50: 2.78

COMPOUND: NC(=O)/C(=C\c1ccc([N+](=O)[O-])o1)c1ccco1
pTD50: 1.662

COMPOUND: O=[N+]([O-])OCC(CO[N+](=O)[O-])O[N+](=O)[O-] [NITROGLYCERIN]
pTD50: 3.161

COMPOUND: Nc1nnc(-c2ccc([N+](=O)[O-])o2)s1
pTD50: 0.494

COMPOUND: O=C(Nc1nc(-c2ccc([N+](=O)[O-])o2)cs1)C(F)(F)F
pTD50: 1.259

COMPOUND: Cc1cc(C)nc(-c2ccc([N+](=O)[O-])o2)n1
pTD50: 1.076

COMPOUND: O=C(N[C@H](CO)[C@H](O)c1ccc([N+](=O)[O-])cc1)C(Cl)Cl [CHLORAMPHENICOL]
pTD50: 2.935

COMPOUND: CC1CN(/N=C/c2ccc([N+](=O)[O-])o2)C(=O)N1 (configuration not stated) [NIFURIMIDE]
pTD50: 1.351

COMPOUND: CN(C)C/N=c1\[nH]nc(/C=C/c2ccc([N+](=O)[O-])o2)o1
pTD50: 1.864

COMPOUND: Nc1nnc(-c2ccc([N+](=O)[O-])o2)o1
pTD50: 1.145

COMPOUND: O=C1CN(/N=C/c2ccc([N+](=O)[O-])o2)C(=O)N1 [NITROFURANTOIN]
pTD50: 2.358

COMPOUND: O=[N+]([O-])c1ccc(-c2nc(NCCO)c3ccccc3n2)s1
pTD50: 1.084

COMPOUND: Nc1ncc([N+](=O)[O-])s1
pTD50: 2.35

COMPOUND: CN(C)Nc1nc(-c2ccc([N+](=O)[O-])o2)cs1
pTD50: 0.187

COMPOUND: COc1ccccc1[N+](=O)[O-] [2-NITROANISOLE]
pTD50: 1.84

COMPOUND: O=C1NCCN1/N=C/c1ccc([N+](=O)[O-])o1 [NIFURADENE]
pTD50: 1.37

----------
- Species: Rattus norvegicus
- ASSAY_METHOD_TEXT: Anticarcinogenic activity in rat assessed as induction of tumors per day
- Type: functional
pTD50 reference

CHEMICAL_STRUCTURE: CC(=O)Nc1nc(-c2ccc([N+](=O)[O-])o2)cs1
pTD50: 1.457
//
CHEMICAL_STRUCTURE: CC(C)(C)c1cc([N+](=O)[O-])cc([N+](=O)[O-])c1OS(C)(=O)=O
pTD50: 0.922
//
CHEMICAL_STRUCTURE: O=[N+]([O-])c1ccc(-c2nc(N3CCOCC3)c3ccccc3n2)s1
pTD50: 1.167
//
CHEMICAL_STRUCTURE: CC(=O)Nc1nc(NC(C)=O)nc(-c2ccc([N+](=O)[O-])o2)n1
pTD50: 1.621
//
CHEMICAL_STRUCTURE: NNc1nc(-c2ccc([N+](=O)[O-])o2)cs1
pTD50: 1.097
//
CHEMICAL_STRUCTURE: COc1c(Cl)c(Cl)c([N+](=O)[O-])c(Cl)c1Cl
pTD50: 1.82
//
CHEMICAL_STRUCTURE: CC(=O)NCc1nc(-c2ccc([N+](=O)[O-])o2)no1
pTD50: 1.314
